Tested on: U2OS
Assay: cell viability relative to DMSO; higher = less toxic
Settings: 72 h; 10 nM
Give cell viability for every item shown.
State just the number; it will be interpreted in %.

Please report cell viability for the following molecule: NC(N)=Nc1nc(CSCCN/C=N/S(=O)(=O)c2ccc(Br)cc2)cs1 [ebrotidine] 103

Please report cell viability for the following molecule: COc1cc2c(NC3CCN(C4CCCCC4)CC3)nc(N3CCCN(C(C)C)CC3)nc2cc1OCCCN1CCCCC1 [UNC0646] 102

Please report cell viability for the following molecule: CCCc1c(OCCCCc2nnn[nH]2)ccc(C(C)=O)c1O [tomelukast] 103

Please report cell viability for the following molecule: CCCC(=O)C1(c2ccccc2)CCN(C(=O)[C@@H](Cc2ccc(OC)cc2)NC(=O)[C@@H](N)Cc2cncn2C)CC1 97.9

Please report cell viability for the following molecule: O=C(NNC(=O)c1ccc(CNS(=O)(=O)c2ccc(F)c(Cl)c2)cc1)c1ccccc1 [TCN201] 99.8

Please report cell viability for the following molecule: N#Cc1c(Oc2ccc(F)c(NC(=O)Cc3cccc(C(F)(F)F)c3)c2)ccc2nc(NC(=O)C3CC3)sc12 [TAK-632] 102

Please report cell viability for the following molecule: CC(C)(C)c1ccc(/C=C/C(=O)Nc2ccc3c(c2)OCCO3)cc1 [AMG-9810] 97.4

Please report cell viability for the following molecule: O=C(O)Cc1ccc2c(c1)C(=O)c1ccccc1CO2 [isoxepac] 95.4
